- Test system: hEno1 (Homo sapiens, UniProt P06733)
- Sequence (P06733 whole entry): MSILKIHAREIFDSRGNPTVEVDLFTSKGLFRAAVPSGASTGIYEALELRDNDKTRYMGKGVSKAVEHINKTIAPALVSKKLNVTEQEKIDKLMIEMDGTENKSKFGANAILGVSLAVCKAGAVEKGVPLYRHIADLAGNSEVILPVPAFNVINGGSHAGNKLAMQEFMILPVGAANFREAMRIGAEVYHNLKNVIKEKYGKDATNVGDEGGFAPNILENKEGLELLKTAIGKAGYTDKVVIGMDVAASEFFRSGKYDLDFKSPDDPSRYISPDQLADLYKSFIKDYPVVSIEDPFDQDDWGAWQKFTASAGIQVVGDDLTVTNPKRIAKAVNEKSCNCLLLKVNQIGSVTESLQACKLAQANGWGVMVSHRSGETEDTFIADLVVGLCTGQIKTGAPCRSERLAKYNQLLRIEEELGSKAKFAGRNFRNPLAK
Measurement kind: IC50
Field note: include the unit after the figure.

input: What value of IC50 on hEno1 (Homo sapiens, UniProt P06733) does O=c1cc(-c2ccccc2)oc2cc(O)c(O)c(O)c12 have?
output: 91.3 µM

###

- Test system: CaEno1 (Candida albicans)
- Sequence (P30575 whole entry): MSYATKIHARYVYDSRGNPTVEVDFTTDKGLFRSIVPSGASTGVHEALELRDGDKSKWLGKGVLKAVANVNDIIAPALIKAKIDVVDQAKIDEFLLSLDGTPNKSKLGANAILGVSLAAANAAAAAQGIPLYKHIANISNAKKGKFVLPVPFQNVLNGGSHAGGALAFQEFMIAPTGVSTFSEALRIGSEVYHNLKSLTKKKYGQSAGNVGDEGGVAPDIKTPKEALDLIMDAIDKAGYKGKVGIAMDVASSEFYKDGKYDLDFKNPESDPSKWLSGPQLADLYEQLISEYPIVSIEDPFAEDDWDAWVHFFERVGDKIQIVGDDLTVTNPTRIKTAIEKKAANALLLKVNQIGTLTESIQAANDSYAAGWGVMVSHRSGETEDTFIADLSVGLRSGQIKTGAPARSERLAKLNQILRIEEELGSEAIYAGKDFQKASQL
Measurement kind: IC50 (µM)
Numeric answer only, unit µM assumed.

input: What value of IC50 on CaEno1 (Candida albicans) does [F-].[Na+] [NaF, sodium fluoride] have?
output: 504
